Listed compounds paired with reported GI50
System: Hela
Experiment summary: SRB anti-proliferative assay, Hela
Type: cell-based, Human
Test context: Homo sapiens, read-out: GI50 Hela

{"Compound": "COc1ccc(C=Cc2cc(OC)c(OC)c(OC)c2)c(NC(=O)/C=C/c2cccc(O)c2)c1O [Compound 20g]", "Assay target": "Hela", "U": "µM", "Readout relation": "=", "GI50": 0.0949}
{"Compound": "COc1ccc(C=Cc2cc(OC)c(OC)c(OC)c2)c(NC(=O)/C=C/c2ccc(C(F)(F)F)cc2)c1O [Compound 20n]", "Assay target": "Hela", "U": "µM", "Readout relation": ">", "GI50": 100}
{"Compound": "C#CCOc1cccc(/C=C/C(=O)Nc2c(C=Cc3cc(OC)c(OC)c(OC)c3)ccc(OC)c2O)c1 [Compound 20h]", "Assay target": "Hela", "U": "µM", "Readout relation": ">", "GI50": 100}
{"Compound": "COc1ccc(C=Cc2cc(OC)c(OC)c(OC)c2)c(NC(=O)/C=C/c2ccc(F)c(F)c2)c1O [Compound 20aa]", "Assay target": "Hela", "U": "µM", "Readout relation": "=", "GI50": 29.2}
{"Compound": "COc1ccc(C=Cc2cc(OC)c(OC)c(OC)c2)c(NC(=O)/C=C/c2ccc([N+](=O)[O-])cc2)c1O [Compound 20o]", "Assay target": "Hela", "U": "µM", "Readout relation": "=", "GI50": 15.7}
{"Compound": "COc1ccc(C=Cc2cc(OC)c(OC)c(OC)c2)c(NC(=O)/C=C/c2cc(OC)c(OC)c(OC)c2)c1O [Compound 20ab]", "Assay target": "Hela", "U": "µM", "Readout relation": "=", "GI50": 14.9}
